Molecular target: T1, human ST2L extracellular domain with C-terminal His6 tag (human, UniProt Q01638 19-328)
T1 construct: also called huST2L-ECD; ST2L-ECD
T1 sequence: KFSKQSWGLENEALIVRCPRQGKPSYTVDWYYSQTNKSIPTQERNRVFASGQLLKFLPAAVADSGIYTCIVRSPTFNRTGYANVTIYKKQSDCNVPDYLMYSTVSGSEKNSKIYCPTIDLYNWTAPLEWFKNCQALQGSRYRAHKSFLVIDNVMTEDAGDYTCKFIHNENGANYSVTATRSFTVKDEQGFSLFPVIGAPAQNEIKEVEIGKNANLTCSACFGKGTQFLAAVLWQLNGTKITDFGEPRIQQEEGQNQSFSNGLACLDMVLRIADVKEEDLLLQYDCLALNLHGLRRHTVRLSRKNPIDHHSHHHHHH
Assay: SPR, mAb captured, ST2L-ECD in solution
pKd: −log10 of the molar value.

{"Binder": "C2519 (antibody, V domains shown, Mouse hybridoma antibody; also called C2519A) VH: EFQLQQSGPELVKPGASVKISCKASGYSFTDYNMNWVKQSHGKSLEWIGNINPYYGSTTYNQKFKGKATLTVDKSSNTAYMHLNSLTSEDSAVYYCAREGDTYLAWFAYWGQGTLVTVSA VL: DVLMTQTPLSLPVSLGDQASISCRSSQSIVYSNGNTYLEWYLQKPGQSPKLLIYKVSNRFSGVPDRFSGSGSGTDFTLKISRVEAEDLGVYYCFQGSHVPPTFGGGTKLEIK", "pKd": 9.74}
{"Binder": "C2521 (antibody, V domains shown, Mouse hybridoma antibody; also called C2521A) VH: QIQLQQSGPELVRPGTSVKISCKASGYTFLTYWMNWVKQRPGQGLEWIGQIFPASGSTYYNEMFKDKATLTVDTSSSTAYMQLSSLTSEDTAVYFCARSENIYYINFQYYFAYWGQGTTLTVSS VL: ILLTQSPAILSVSPGERVSFSCRASQNIGTRMHWYQQRTNGSPRLLIKYASESISGIPSRFSGSGSGTDFTLTISSVESEDIADYYCQQSNTWPFTFGSGTKLEIK", "pKd": 10.10}
{"Binder": "STLM15 (antibody, human IgG2, V domains shown, Mouse hybridoma C2244 cloned into human IgG2 background (STLM15); also called C2244) VH: EVQLQESGPGLVKPSQSLSLTCTVTGFSITSDYAWNWIRQFPGSKLEWMGFISYSGDTSFNPSLKSRISVTRDTSKNQFFLQLNSVTTEDTATYYCASYDGYSFDYWGQGTTLTVSS VL: DIVLTQSPASLAISLGQRATISCRASKSVSTSGSSYMFWYQQKPGQPPKLLIYLASNLESGVPARFSGSGSGTDFTLNIHPVEEEDAAAYYCQHSREIPYTFGGGTKLEIK", "pKd": 10.38}
